Please go through the items and note down their IC50.
Subject Of Test: adenosine A3 receptor (Homo sapiens (Human), UniProt P0DMS8)
Sequence (P0DMS8 whole entry): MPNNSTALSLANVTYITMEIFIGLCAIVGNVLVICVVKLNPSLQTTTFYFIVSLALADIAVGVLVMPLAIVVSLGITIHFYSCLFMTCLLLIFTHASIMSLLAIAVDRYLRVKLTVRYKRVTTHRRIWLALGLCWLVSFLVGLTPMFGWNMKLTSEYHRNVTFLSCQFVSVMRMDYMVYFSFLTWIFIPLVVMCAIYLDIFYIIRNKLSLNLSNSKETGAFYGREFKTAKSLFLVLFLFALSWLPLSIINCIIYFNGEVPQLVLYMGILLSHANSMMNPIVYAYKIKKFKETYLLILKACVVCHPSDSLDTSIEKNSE
Test Protocol: Adenosine receptor activity assay (Table 1), A3 cAMP
Format: cell-based

Q: Look up IC50 for this compound: `Cc1cc2nc(N[C@@H](C)c3cncc(F)c3)nc(C(=O)NC[C@H](C)O)c2s1`
Ans: 0.05 to 0.1 µM

Q: Look up IC50 for this compound: `CO[C@H]1CCN(C(=O)c2nc(N[C@@H](C)c3cncc(Cl)c3)nc3ccsc23)C1`
Ans: > 0.5 µM

Q: Look up IC50 for this compound: `Cc1cc2nc(N[C@@H](C)c3cncc(F)c3)nc(C(=O)NCC(F)(F)F)c2s1`
Ans: 0.05 to 0.1 µM

Q: Look up IC50 for this compound: `CC(=O)N[C@H]1CCN(C(=O)c2nc(N[C@@H](C)c3cncc(F)c3)nc3cc(C)sc23)C1`
Ans: 0.01 to 0.05 µM

Q: Look up IC50 for this compound: `Cc1cc2nc(N[C@@H](C)c3cccnc3)nc(C(=O)N3CC[C@H](CO)C3)c2s1`
Ans: > 0.5 µM

Q: Look up IC50 for this compound: `Cc1cc2nc(N[C@@H](C)c3cncc(F)c3)nc(C(=O)NCCc3ccc(O)cc3)c2s1`
Ans: 0.01 to 0.05 µM

Q: Look up IC50 for this compound: `Cc1cc2nc(N[C@@H](C)c3cccnc3)nc(C(=O)N3CCCC3)c2s1`
Ans: > 0.5 µM

Q: Look up IC50 for this compound: `CO[C@H]1CCN(C(=O)c2nc(N[C@@H](C)c3ccccn3)nc3ccsc23)C1`
Ans: > 0.5 µM

Q: Look up IC50 for this compound: `Cc1cc2nc(N[C@@H](C)c3ccccn3)nc(C(=O)NC[C@H](C)O)c2s1`
Ans: 0.05 to 0.1 µM

Q: Look up IC50 for this compound: `CNc1cc2nc(N[C@@H](C)c3cncc(F)c3)nc(C(=O)N3CC(OC)C3)c2s1`
Ans: 0.05 to 0.1 µM

Q: Look up IC50 for this compound: `Cc1cc2nc(N[C@@H](C)c3ccccn3)nc(C(=O)N3CC[C@H](O)C3)c2s1`
Ans: > 0.5 µM

Q: Look up IC50 for this compound: `C[C@H](Nc1nc(C(=O)NC[C@@H](C)O)c2sccc2n1)c1cncc(Cl)c1`
Ans: 0.05 to 0.1 µM

Q: Look up IC50 for this compound: `CO[C@H]1CCN(C(=O)c2nc(N[C@@H](C)c3cncc(F)c3)nc3ccsc23)C1`
Ans: > 0.5 µM

Q: Look up IC50 for this compound: `C[C@H](Nc1nc(C(=O)N2CCCC2)c2sc(N)cc2n1)c1cncc(F)c1`
Ans: > 0.5 µM

Q: Look up IC50 for this compound: `Cc1cc2nc(N[C@@H](C)c3cccnc3)nc(C(=O)N3CCC3)c2s1`
Ans: > 0.5 µM

Q: Look up IC50 for this compound: `COC[C@@H](Nc1nc(C(=O)N2CCC2)c2sccc2n1)c1cccnc1`
Ans: > 0.5 µM

Q: Look up IC50 for this compound: `CNc1cc2nc(N[C@@H](C)c3cccnc3)nc(C(=O)N3CC(O)C3)c2s1`
Ans: > 0.5 µM

Q: Look up IC50 for this compound: `C[C@H](Nc1nc(C(=O)N2CCCC2)c2sccc2n1)c1cncc(Cl)c1`
Ans: > 0.5 µM

Q: Look up IC50 for this compound: `C[C@H](Nc1nc(C(=O)N[C@@H]2CCN(C(=O)OC(C)(C)C)C2)c2sccc2n1)c1ccccn1`
Ans: 0.01 to 0.05 µM

Q: Look up IC50 for this compound: `Cc1cc2nc(N[C@@H](C)c3ccccn3)nc(C(=O)N3CC(O)C3)c2s1`
Ans: 0.05 to 0.1 µM

Q: Look up IC50 for this compound: `CO[C@@H]1CCN(C(=O)c2nc(N[C@@H](C)c3ccccn3)nc3cc(C)sc23)C1`
Ans: 0.05 to 0.1 µM

Q: Look up IC50 for this compound: `C[C@H](Nc1nc(C(=O)NCCc2ccc(O)cc2)c2sccc2n1)c1cncc(F)c1`
Ans: > 0.5 µM

Q: Look up IC50 for this compound: `C[C@H](Nc1nc(C(=O)N2CC[C@H](O)C2)c2sccc2n1)c1cncc(Cl)c1`
Ans: > 0.5 µM

Q: Look up IC50 for this compound: `Cc1cc2nc(N[C@@H](C)c3cccnc3)nc(C(=O)N3CC(O)C3)c2s1`
Ans: > 0.5 µM

Q: Look up IC50 for this compound: `C[C@H](Nc1nc(C(=O)N[C@H]2C[C@@H](O)C2)c2sccc2n1)c1cncc(Cl)c1`
Ans: > 0.5 µM

Q: Look up IC50 for this compound: `Cc1cc2nc(N[C@@H](C)c3cncc(F)c3)nc(C(=O)NC[C@@H]3CCOC3)c2s1`
Ans: 0.05 to 0.1 µM

Q: Look up IC50 for this compound: `C[C@H](Nc1nc(C(=O)NCC2CCOCC2)c2sccc2n1)c1cncc(F)c1`
Ans: > 0.5 µM

Q: Look up IC50 for this compound: `Cc1cc2nc(N[C@@H](C)c3cncc(F)c3)nc(C(=O)N3CC[C@@H](O)C3)c2s1`
Ans: > 0.5 µM

Q: Look up IC50 for this compound: `Cc1cc2nc(N[C@@H](C)c3cncc(F)c3)nc(C(=O)N3CCC3)c2s1`
Ans: 0.05 to 0.1 µM

Q: Look up IC50 for this compound: `CO[C@H]1CCN(C(=O)c2nc(N[C@@H](C)c3cncc(F)c3)nc3cc(C)sc23)C1`
Ans: 0.05 to 0.1 µM

----------
Test Protocol: Hepatocyte (Hep) intrinsic clearance, human
Type: in vitro ADME
Applied Conditions: hepatocytes
Lab note: compare hepatocyte CLint with 9 µL/min/1e6 cells, writing YES if less and NO if equal or more.

Q: API: query returns whether the compound falls strictly under 9 µL/min/1e6 cells in hepatocyte CLint. Query: `O=C(NC1CCC1)c1nc(NCc2cncc(F)c2)nc2ccsc12`
Ans: NO

Q: API: query returns whether the compound falls strictly under 9 µL/min/1e6 cells in hepatocyte CLint. Query: `C[C@H](Nc1nc(C(=O)N2CC[C@H](O)C2)c2sccc2n1)c1cccnc1`
Ans: YES

Q: API: query returns whether the compound falls strictly under 9 µL/min/1e6 cells in hepatocyte CLint. Query: `Cc1cncc(CNc2nc(C(=O)N3CCC3)c3sccc3n2)c1`
Ans: NO

Q: API: query returns whether the compound falls strictly under 9 µL/min/1e6 cells in hepatocyte CLint. Query: `C[C@H](Nc1nc(C(=O)N2CC[C@H](F)C2)c2sccc2n1)c1ccccn1`
Ans: NO

Q: API: query returns whether the compound falls strictly under 9 µL/min/1e6 cells in hepatocyte CLint. Query: `C[C@H](Nc1nc(C(=O)N2CC[C@H](F)C2)c2sccc2n1)c1cccnc1`
Ans: NO

Q: API: query returns whether the compound falls strictly under 9 µL/min/1e6 cells in hepatocyte CLint. Query: `C[C@H](Nc1nc(C(=O)NCCO)c2sccc2n1)c1cccnc1`
Ans: YES

Q: API: query returns whether the compound falls strictly under 9 µL/min/1e6 cells in hepatocyte CLint. Query: `O=C(c1nc(NCc2cncc(F)c2)nc2ccsc12)N1CCCC1`
Ans: NO

Q: API: query returns whether the compound falls strictly under 9 µL/min/1e6 cells in hepatocyte CLint. Query: `C[C@H]1CCN(C(=O)c2nc(N[C@@H](C)c3ccccn3)nc3ccsc23)C1`
Ans: NO

Q: API: query returns whether the compound falls strictly under 9 µL/min/1e6 cells in hepatocyte CLint. Query: `C[C@H](Nc1nc(C(=O)N2CC[C@@H](O)C2)c2sccc2n1)c1ccccn1`
Ans: YES

Q: API: query returns whether the compound falls strictly under 9 µL/min/1e6 cells in hepatocyte CLint. Query: `O=C(c1nc(NCc2cncc(F)c2)nc2ccsc12)N1CCC1`
Ans: NO

Q: API: query returns whether the compound falls strictly under 9 µL/min/1e6 cells in hepatocyte CLint. Query: `C[C@H](Nc1nc(C(=O)N2CC[C@H](O)C2)c2sccc2n1)c1ccccn1`
Ans: YES

Q: API: query returns whether the compound falls strictly under 9 µL/min/1e6 cells in hepatocyte CLint. Query: `N#Cc1cncc(CNc2nc(C(=O)N3CCCC3)c3sccc3n2)c1`
Ans: NO

Q: API: query returns whether the compound falls strictly under 9 µL/min/1e6 cells in hepatocyte CLint. Query: `COC1CN(C(=O)c2nc(NCc3cncc(F)c3)nc3ccsc23)C1`
Ans: NO

Q: API: query returns whether the compound falls strictly under 9 µL/min/1e6 cells in hepatocyte CLint. Query: `O=C(NCCO)c1nc(NCc2cc(F)cc(F)c2)nc2ccsc12`
Ans: NO

Q: API: query returns whether the compound falls strictly under 9 µL/min/1e6 cells in hepatocyte CLint. Query: `C[C@H](O)CNC(=O)c1nc(N[C@@H](C)c2cncc(F)c2)nc2ccsc12`
Ans: NO

Q: API: query returns whether the compound falls strictly under 9 µL/min/1e6 cells in hepatocyte CLint. Query: `C[C@H](Nc1nc(C(=O)N2CC[C@@H](O)C2)c2sccc2n1)c1cccnc1`
Ans: YES

Q: API: query returns whether the compound falls strictly under 9 µL/min/1e6 cells in hepatocyte CLint. Query: `C[C@H](Nc1nc(C(=O)N2CC[C@H](O)C2)c2sccc2n1)c1cncc(F)c1`
Ans: YES

Q: API: query returns whether the compound falls strictly under 9 µL/min/1e6 cells in hepatocyte CLint. Query: `O=C(c1nc(NCc2cncc(F)c2)nc2ccsc12)N1CC[C@H](O)C1`
Ans: YES

Q: API: query returns whether the compound falls strictly under 9 µL/min/1e6 cells in hepatocyte CLint. Query: `Cc1cncc(CNc2nc(C(=O)N3CCCC3)c3sccc3n2)c1`
Ans: NO

Q: API: query returns whether the compound falls strictly under 9 µL/min/1e6 cells in hepatocyte CLint. Query: `CNc1cc2nc(N[C@@H](C)c3cccnc3)nc(C(=O)N3CC[C@H](O)C3)c2s1`
Ans: YES

Q: API: query returns whether the compound falls strictly under 9 µL/min/1e6 cells in hepatocyte CLint. Query: `C[C@H](Nc1nc(C(=O)N2CC[C@@H](F)C2)c2sccc2n1)c1cccnc1`
Ans: YES

Q: API: query returns whether the compound falls strictly under 9 µL/min/1e6 cells in hepatocyte CLint. Query: `C[C@@H]1CCN(C(=O)c2nc(N[C@@H](C)c3ccccn3)nc3ccsc23)C1`
Ans: NO

Q: API: query returns whether the compound falls strictly under 9 µL/min/1e6 cells in hepatocyte CLint. Query: `C[C@H](Nc1nc(C(=O)N2CCOC2)c2sccc2n1)c1ccccn1`
Ans: NO

Q: API: query returns whether the compound falls strictly under 9 µL/min/1e6 cells in hepatocyte CLint. Query: `O=C(NCCO)c1nc(NCc2cncc(F)c2)nc2ccsc12`
Ans: YES
